Target: T1, hPRLR.mmh (soluble monomeric human PRLR) (human)
T1 construct: soluble monomeric PRLR protein
T1 chain: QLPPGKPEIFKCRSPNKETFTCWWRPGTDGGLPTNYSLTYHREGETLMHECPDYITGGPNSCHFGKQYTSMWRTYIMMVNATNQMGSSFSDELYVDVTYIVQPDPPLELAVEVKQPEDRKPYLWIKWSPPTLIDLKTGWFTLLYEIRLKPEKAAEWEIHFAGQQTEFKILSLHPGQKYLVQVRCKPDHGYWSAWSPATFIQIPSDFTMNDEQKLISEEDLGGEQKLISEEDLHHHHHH
Assay: SPR (Biacore), antibody capture, 37 C
T 1/2 reference
Supply the numeric figure in min, leaving out any unit text.

H1H6762P (antibody, human IgG1, V domains shown, human IgG1 Fc (H1H)) VH: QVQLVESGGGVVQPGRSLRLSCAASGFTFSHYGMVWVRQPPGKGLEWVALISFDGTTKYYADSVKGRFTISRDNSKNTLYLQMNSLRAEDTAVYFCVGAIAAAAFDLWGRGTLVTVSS VL: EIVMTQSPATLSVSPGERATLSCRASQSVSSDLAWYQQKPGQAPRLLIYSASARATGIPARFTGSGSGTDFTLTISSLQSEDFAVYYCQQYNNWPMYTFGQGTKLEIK	25

Prompt: Provide T 1/2 value for the following binder: H1H6976N (antibody, human IgG1, V domains shown, also called H2M6976N) VH: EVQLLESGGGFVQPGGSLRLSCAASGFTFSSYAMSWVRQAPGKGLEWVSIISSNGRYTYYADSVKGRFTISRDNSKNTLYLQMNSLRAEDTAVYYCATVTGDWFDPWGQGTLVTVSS VL: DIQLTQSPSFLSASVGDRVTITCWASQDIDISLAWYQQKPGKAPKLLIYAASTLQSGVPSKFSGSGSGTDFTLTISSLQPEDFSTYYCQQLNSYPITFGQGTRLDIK
Response: 3.7

Prompt: Please look at this binder and report its T 1/2: H1H6774P (antibody, human IgG1, V domains shown, human IgG1 Fc (H1H)) VH: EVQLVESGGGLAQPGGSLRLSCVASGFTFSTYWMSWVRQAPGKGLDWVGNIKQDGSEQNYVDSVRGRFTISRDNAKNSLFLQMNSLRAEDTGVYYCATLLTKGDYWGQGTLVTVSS VL: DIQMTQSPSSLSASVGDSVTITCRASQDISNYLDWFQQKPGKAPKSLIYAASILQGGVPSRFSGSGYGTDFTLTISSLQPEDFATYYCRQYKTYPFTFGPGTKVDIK
Response: 4

Prompt: Identify T 1/2 associated with the binder H1H6801P (antibody, human IgG1, V domains shown, human IgG1 Fc (H1H)) VH: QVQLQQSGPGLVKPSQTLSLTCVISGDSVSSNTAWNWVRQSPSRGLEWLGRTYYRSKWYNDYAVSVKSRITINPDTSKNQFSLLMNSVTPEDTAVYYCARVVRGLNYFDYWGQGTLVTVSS VL: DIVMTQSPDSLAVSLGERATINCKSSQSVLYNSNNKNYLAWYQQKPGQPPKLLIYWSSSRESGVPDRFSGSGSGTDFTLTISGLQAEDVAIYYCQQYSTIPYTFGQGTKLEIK
Response: 3

Prompt: Supply measured T 1/2 of H1H6803P (antibody, human IgG1, V domains shown, human IgG1 Fc (H1H)) VH: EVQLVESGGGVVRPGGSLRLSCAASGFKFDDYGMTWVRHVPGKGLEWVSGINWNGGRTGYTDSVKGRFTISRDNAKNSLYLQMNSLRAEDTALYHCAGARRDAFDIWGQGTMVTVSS VL: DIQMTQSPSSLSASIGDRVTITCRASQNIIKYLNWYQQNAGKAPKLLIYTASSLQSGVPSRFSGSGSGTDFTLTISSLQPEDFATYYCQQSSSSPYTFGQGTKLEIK in your reply.
Response: 32

Prompt: Provide T 1/2 value for the following binder: H1H6797P (antibody, human IgG1, V domains shown, human IgG1 Fc (H1H)) VH: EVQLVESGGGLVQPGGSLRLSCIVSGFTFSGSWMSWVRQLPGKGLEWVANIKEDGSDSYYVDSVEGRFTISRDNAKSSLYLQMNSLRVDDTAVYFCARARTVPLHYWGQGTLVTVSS VL: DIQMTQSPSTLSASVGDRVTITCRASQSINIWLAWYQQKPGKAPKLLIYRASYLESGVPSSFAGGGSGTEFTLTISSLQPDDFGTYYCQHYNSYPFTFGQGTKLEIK
Response: 1

Prompt: Answer with the recorded T 1/2 of H1H6804P (antibody, human IgG1, V domains shown, human IgG1 Fc (H1H)) VH: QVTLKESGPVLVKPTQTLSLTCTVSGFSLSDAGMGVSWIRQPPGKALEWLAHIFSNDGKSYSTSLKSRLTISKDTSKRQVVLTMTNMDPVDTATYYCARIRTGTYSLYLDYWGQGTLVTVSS VL: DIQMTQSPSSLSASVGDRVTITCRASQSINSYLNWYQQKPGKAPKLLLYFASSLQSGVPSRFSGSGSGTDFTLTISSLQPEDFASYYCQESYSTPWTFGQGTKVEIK only.
Response: 3
